Reference source: patent US20250312352A1

Each item that follows carries a reported EC50.
- measurementTarget: GLP-1R (Homo sapiens)
- Sequence (P43220 24-463): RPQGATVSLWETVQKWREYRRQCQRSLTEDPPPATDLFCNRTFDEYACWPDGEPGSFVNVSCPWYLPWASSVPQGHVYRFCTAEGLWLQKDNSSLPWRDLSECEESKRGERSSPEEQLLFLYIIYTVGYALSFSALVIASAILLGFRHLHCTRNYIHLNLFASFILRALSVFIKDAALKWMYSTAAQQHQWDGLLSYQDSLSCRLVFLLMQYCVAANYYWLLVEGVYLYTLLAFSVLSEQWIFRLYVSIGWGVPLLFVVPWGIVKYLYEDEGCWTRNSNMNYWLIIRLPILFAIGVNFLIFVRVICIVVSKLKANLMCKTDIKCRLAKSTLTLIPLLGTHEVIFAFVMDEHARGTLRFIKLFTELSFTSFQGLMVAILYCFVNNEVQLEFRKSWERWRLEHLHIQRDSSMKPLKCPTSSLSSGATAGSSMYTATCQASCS
- measurementDescription: GLP-1R activation cAMP assay (Assay 1 or Assay 2)
- appliedConditions: cAMP increase in CHO cells stably expressing GLP-1R; compounds run on one of the two cAMP assays
Answer format: numeric, nM implied, no suffix.

For orientation, consider the following solved cases.
NC(=O)c1cc(F)c(COc2cccc(-c3cc(F)c(Cc4nc5c(F)cc(C(=O)O)cc5n4C[C@@H]4CCO4)cc3F)n2)cn1: 0.12
COc1nnc(COc2nc(-c3cc(F)c(Cc4nc5ccc(C(=O)O)cc5n4[C@@H]4COCC4(C)C)cc3C)ccc2F)s1: 0.483
Cn1cncc1-c1cnc(COc2cccc(-c3cc(F)c(Cc4nc5ccc(C(=O)O)cc5n4C[C@@H]4CCO4)cc3F)n2)s1: 13.6
Cn1nc(COc2cccc(-c3cc(F)c(Cc4nc5ccc(C(=O)O)cc5n4C[C@@H]4CCO4)cc3F)n2)cc1CC#N: 8.46
N#CC1(NC(=O)c2ccc(COc3cccc(-c4cc(F)c(Cc5nc6c(F)cc(C(=O)O)cc6n5C[C@@H]5CCO5)cc4F)n3)cn2)CC1: 0.08

Okay, now this compound:
input: Tell me the measured EC50 of `NC(=O)c1ccc(COc2cccc(-c3ccc(Cc4nc5ccc(C(=O)O)cc5n4C[C@@H]4CCO4)cc3F)n2)cn1` , please.
output: 23.2

* * *

- measurementTarget: GLP-1R (Homo sapiens)
- measurementDescription: GLP-1R activation cAMP assay (Assay 1 or Assay 2)
- appliedConditions: cAMP increase in CHO cells stably expressing GLP-1R; compounds run on one of the two cAMP assays
pEC50: −log10 of the molar value.
pEC50 of 10 or higher: y. Under 10: n.

N#Cc1ccc(-c2cnc(COc3cccc(-c4cc(F)c(Cc5nc6ccc(C(=O)O)cc6n5C[C@@H]5CCO5)cc4F)n3)s2)cc1 [Example 383]: n
COc1nnc(COc2cccc(-c3cc(F)c(Cc4nc5c(F)cc(C(=O)O)cc5n4[C@@H]4COCC4(C)C)cc3F)n2)s1 [Example 345]: y

Now let's try a different one.
input: Quick check: does COc1nnc(COc2cccc(-c3cc(F)c(Cc4nc5c(F)cc(C(=O)O)cc5n4[C@@H]4COCC4(C)C)c(F)c3)n2)s1 [Example 439] have pEC50 greater than or equal to 10?
output: n

* * *

- measurementTarget: GLP-1R (Homo sapiens)
- measurementDescription: GLP-1R activation cAMP assay (Assay 1 or Assay 2)
- appliedConditions: cAMP increase in CHO cells stably expressing GLP-1R; compounds run on one of the two cAMP assays
readoutKind: pEC50
// pEC50 here means minus log10 of the molar concentration (mol/L)

The examples below pair each entry with its known result.
Cn1ccc(CNC(=O)c2cc(Cl)c(COc3cccc(-c4cc(F)c(Cc5nc6ccc(C(=O)O)cc6n5C[C@@H]5CCO5)cc4F)n3)cn2)n1 [Example 366]: 9.25
Cn1cc(C#Cc2cnc(COc3cccc(-c4cc(F)c(Cc5nc6c(F)cc(C(=O)O)cc6n5CC5(CF)CC5)cc4F)n3)c(F)c2)cn1 [Example 274]: 9.71
Cc1cc(C#Cc2cnn(C)c2)cnc1COc1cccc(-c2cc(F)c(Cc3nc4ccc(C(=O)O)cc4n3C[C@@H]3CCO3)cc2F)n1 [Example 289]: 9.58
NC(=O)c1cnc(COc2cccc(-c3cc(F)c(Cc4nc5ccc(C(=O)O)cc5n4C[C@@H]4CCO4)cc3F)n2)s1 [Example 3]: 8.50
CC(C)(C#N)C#Cc1cnc(COc2cccc(-c3cc(F)c(Cc4nc5ccc(C(=O)O)cc5n4C[C@@H]4CCO4)cc3F)n2)s1 [Example 328]: 9.47

input: Find the measured pEC50: item O=C(O)c1ccc2nc(Cc3cc(F)c(-c4cccc(OCc5cnc(C(=O)NC6CC6)cc5F)n4)cc3F)n(C[C@@H]3CCO3)c2c1 [Example 245] , target or system GLP-1R (Homo sapiens).
output: 10.00

input: What value of pEC50 on GLP-1R (Homo sapiens) does O=C(O)c1ccc2nc(Cc3cc(F)c(-c4cccc(OCc5cc6n(n5)CC5(CC5)C6)n4)cc3F)n(C[C@@H]3CCO3)c2c1 [Example 75] have?
output: 9.21

input: Give recorded pEC50 with GLP-1R (Homo sapiens) for the following compound: Cn1cc(C#Cc2ccc(COc3cccc(-c4cc(F)c(Cc5nc6c(F)cc(C(=O)O)cc6n5C[C@@H]5CCO5)cc4F)n3)cn2)cn1 [Example 391]
output: 9.52

input: Recall the recorded pEC50 for Cn1cc(C#Cc2cnc(COc3cccc(-c4cc(F)c(Cc5nc6c(F)cc(C(=O)O)cc6n5C[C@@H]5CCO5)cc4F)n3)s2)cn1 [Example 111] with GLP-1R (Homo sapiens) and state it.
output: 10.30

input: Please tell me: pEC50 of Cn1nc(COc2cccc(-c3cc(F)c(Cc4nc5ccc(C(=O)O)cc5n4C[C@@H]4CCO4)cc3F)n2)cc1Cl [Example 38] , system GLP-1R (Homo sapiens)?
output: 9.22

input: Return pEC50 measured with GLP-1R (Homo sapiens) given this compound: O=C(O)c1cc(F)c2nc(Cc3cc(F)c(-c4cccc(OCc5ncc(Cl)s5)n4)cc3F)n(C[C@@H]3CCO3)c2c1 [Example 319]
output: 10.47

input: Record O=C(O)c1cc(F)c2nc(Cc3cc(F)c(-c4ccc(F)c(OCc5ncc(C(F)(F)F)s5)n4)cc3F)n(C[C@@H]3CCO3)c2c1 [Example 313] : what is its pEC50 with GLP-1R (Homo sapiens)?
output: 10.49

input: API: value(readout= pEC50, system= GLP-1R (Homo sapiens), query= O=C(O)c1ccc2nc(Cc3cc(F)c(-c4cccc(OCc5cc(C(F)(F)F)co5)n4)cc3F)n(C[C@@H]3CCO3)c2c1 [Example 18] )
output: 9.49
